# Assay Procedure: PK in rat, oils or preformed emulsions by oral gavage
# Set-up: species or system Sprague Dawley rats
# Assay Setup: Sprague-Dawley, in vivo, 100 mg/kg, crystalline ethanolate, Miglyol/Cremophor/water 40/10/50, 100 mg/kg, Tlast = 24 hr

{"Compound": "CCOC(=O)N1c2ccc(C(F)(F)F)cc2[C@@H](N(Cc2cc(C(F)(F)F)cc(C(F)(F)F)c2)C(=O)OC)C[C@H]1CC [Compound A]", "AUC(0-t) / ng·h/mL": 23000}

###

# Assay Procedure: PK in rat, oils or preformed emulsions by oral gavage
# Parameters: species or system Sprague Dawley rats
# Assay Setup: Sprague-Dawley, in vivo, 500 mg/kg, crystalline ethanolate, Miglyol, Tlast = 24 hr

{"Compound String": "CCOC(=O)N1c2ccc(C(F)(F)F)cc2[C@@H](N(Cc2cc(C(F)(F)F)cc(C(F)(F)F)c2)C(=O)OC)C[C@H]1CC", "AUC(0-t)": "27000 ng·h/mL"}

###

# Assay Procedure: PK in rat, oils or preformed emulsions by oral gavage
# Parameters: species or system Sprague Dawley rats
# Assay Setup: Sprague-Dawley, in vivo, 375 mg/kg, crystalline ethanolate, Olive oil/caprylic acid/Cremophor/water 10/30/10/50, 375 mg/kg, Tlast = 9 hr

{"Compound": "CCOC(=O)N1c2ccc(C(F)(F)F)cc2[C@@H](N(Cc2cc(C(F)(F)F)cc(C(F)(F)F)c2)C(=O)OC)C[C@H]1CC [Compound A]", "AUC(0-t) (ng·h/mL)": 21000}

###

# Assay Procedure: Microsolubility estimate by repeated addition of vehicle
# Format: physicochemical
# Assay Setup: Sesame oil, oil or lipid, thermodynamic from solid; read-out: Microsolubility

{"Molecule": "COC(=O)N(Cc1cc(C(F)(F)F)cc(C(F)(F)F)c1)[C@H]1CC(C2CC2)N(C(=O)OC(C)C)c2ccc(C(F)(F)F)cc21 (stereo in doubt) [Compound G]", "Solubility": "> 300 mg/mL"}
{"Molecule": "CCOC(=O)N1c2cc3c(cc2[C@H](N(Cc2cc(C(F)(F)F)cc(C(F)(F)F)c2)C(=O)OC)C[C@@H]1C)CCC3 [Compound J]", "Solubility": "> 100 mg/mL"}
{"Molecule": "CCOC(=O)N1c2cc(C(F)(F)F)ccc2[C@@H](N(Cc2cc(C(F)(F)F)cc(C(F)(F)F)c2)C(=O)OC)C[C@H]1C [Compound I]", "Solubility": "< 20 mg/mL"}

###

# Assay Procedure: PK in rat, oils or preformed emulsions by oral gavage
# Parameters: species or system Sprague Dawley rats
# Assay Setup: Sprague-Dawley, in vivo, 300 mg/kg, amorphous anhydrous, Olive oil, Tlast = 24 hr
Property Measured: AUC(0-t)

{"Compound String": "CCOC(=O)N1c2ccc(C(F)(F)F)cc2[C@@H](N(Cc2cc(C(F)(F)F)cc(C(F)(F)F)c2)C(=O)OC)C[C@H]1CC", "Property Measured": "AUC(0-t)", "Experimental Value": "50000 ng·h/mL"}

###

# Assay Procedure: PK in rat, oils or preformed emulsions by oral gavage
# Design: species or system Sprague Dawley rats
# Assay Setup: Sprague-Dawley, in vivo, 625 mg/kg, crystalline ethanolate, Olive oil/caprylic acid/triacetin/Cremophor/water 10/15/15/10/50, 625 mg/kg, Tlast = 9 hr

{"Compound String": "CCOC(=O)N1c2ccc(C(F)(F)F)cc2[C@@H](N(Cc2cc(C(F)(F)F)cc(C(F)(F)F)c2)C(=O)OC)C[C@H]1CC", "AUC(0-t) [ng·h/mL]": 26000}

The measured values listed here are drawn from patent US6962931B2.
